System: SNB-75 CNS
Assay: NCI-60 one-dose screen, 48 h (100 = growth as untreated, 0 = no growth, -100 = all killed)
Settings: 10 µM unless noted
About 83,000 compounds went through this panel and 20% of them were active in at least one assay; those are over-represented in the sample as a whole.
// f strictly below 80% in growth; t otherwise

Sample answers from the record:
- COc1ccc(-c2nc(SCCC(C)C)nc(N/N=C(/C)c3ccc(C)cc3)c2C#N)cc1: t
- Cc1ccc(C2CC(c3cccc(Nc4ccncc4)c3)=NN2c2cc(Cl)cc(Cl)c2)cc1 (configuration not stated): f
- O=S(=O)(c1cccc(NC2=Nc3cccc4cccc2c34)c1)N1CCCC1: f
- Cn1c(COC(=O)N2CCCCC2)nc2c(N3CCOCC3)nc(-c3ccccc3)nc21: f

IN: growth >= 80% for `CN(C)C(=O)OCc1nc2c(N3CCOCC3)nc(-c3ccccc3)nc2n1C` ?
OUT: f

IN: Follow-up entry: `COc1ccc2c(c1)c(CC(=O)NCCOCCOCC(=O)Nc1ccc(OC)c(C(N)=O)c1O)c(C)n2C(=O)c1ccc(Cl)cc1`
OUT: t
